Cited source for all entries: patent US4808584A

For Citrobacter freundii NIHJ 10018-68, measured MIC is reported for the entries below.
MEASUREMENT KIND: MIC

{"columns": ["COMPOUND", "MEASUREMENT KIND", "REPORTED VALUE"],
 "data": [
  ["CCN1CCN(c2c(F)cc3c(=O)c(C(=O)O)c4scc5n4c3c2OC5)CC1", "MIC", "0.39 µg/mL"],
  ["O=C(O)c1c(=O)c2cc(F)c(N3CCNCC3)c3c2n2c(csc12)CO3", "MIC", "0.2 µg/mL"],
  ["O=C(O)c1c(=O)c2cc(F)c(N3CCN(O)CC3)c3c2n2c(csc12)CO3", "MIC", "0.2 µg/mL"],
  ["NC1CCN(c2c(F)cc3c(=O)c(C(=O)O)c4scc5n4c3c2OC5)C1 (stereo not drawn)", "MIC", "0.2 µg/mL"],
  ["O=C(O)c1c(=O)c2cc(F)c(N3CCCC3)c3c2n2c(csc12)CO3", "MIC", "3.13 µg/mL"],
  ["CC1COc2c(N3CCN(C)CC3)c(F)cc3c(=O)c(C(=O)O)cn1c23 (racemic) [Ofloxacin, reference compound]", "MIC", "0.39 µg/mL"],
  ["CN1CCN(c2c(F)cc3c(=O)c(C(=O)O)c4scc5n4c3c2OC5)CC1", "MIC", "0.2 µg/mL"],
  ["CC1CN(c2c(F)cc3c(=O)c(C(=O)O)c4scc5n4c3c2OC5)CCN1 (stereo not drawn) [Compound (E)]", "MIC", "0.78 µg/mL"],
  ["O=C(O)c1c(=O)c2cc(F)c(N3CCC(O)C3)c3c2n2c(csc12)CO3 (stereo not drawn)", "MIC", "0.39 µg/mL"]
]}
